Target: UGT1A7 (Homo sapiens)
Sequence (Q9HAW7 26-530): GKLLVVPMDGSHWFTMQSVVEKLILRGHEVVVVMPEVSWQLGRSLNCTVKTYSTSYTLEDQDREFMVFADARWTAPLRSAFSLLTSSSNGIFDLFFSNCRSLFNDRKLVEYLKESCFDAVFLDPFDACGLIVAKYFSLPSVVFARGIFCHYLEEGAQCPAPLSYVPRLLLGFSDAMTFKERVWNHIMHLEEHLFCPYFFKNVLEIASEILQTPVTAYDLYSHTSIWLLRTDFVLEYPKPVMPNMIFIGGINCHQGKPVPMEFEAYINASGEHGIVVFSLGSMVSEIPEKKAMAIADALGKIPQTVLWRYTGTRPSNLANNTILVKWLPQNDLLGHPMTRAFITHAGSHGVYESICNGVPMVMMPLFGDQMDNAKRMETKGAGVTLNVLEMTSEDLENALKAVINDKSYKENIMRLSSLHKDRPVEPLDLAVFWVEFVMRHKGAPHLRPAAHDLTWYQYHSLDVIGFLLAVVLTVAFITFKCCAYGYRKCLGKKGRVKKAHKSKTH
Experiment: UGT1A7 supersomes-catalyzed 4-MU glucuronidation inhibition
Settings: 50 μM PC components; recombinant human UGT; mean of triplicate
Reported residual activity 1A7 values for the following compounds.
The reply should contain only the number, in %.

>  <substance smiles>
CCCCCCCCC(=O)OC[C@H](COP(=O)([O-])OCC[N+](C)(C)C)OC(=O)CCCCCCCC

>  <reported endpoint>
residual activity 1A7

>  <experimental value>
137

$$$$
>  <substance smiles>
CCCCCCCCCCCCCCCCC(=O)OC[C@H](COP(=O)([O-])OCC[N+](C)(C)C)OC(=O)CCCCCCCCCCCCCCCC

>  <reported endpoint>
residual activity 1A7

>  <experimental value>
138.9

$$$$
>  <substance smiles>
CCCCCCCCCCCCCCCCCCCC(=O)OC[C@H](COP(=O)([O-])OCC[N+](C)(C)C)OC(=O)CCCCCCCCCCCCCCCCCCC

>  <reported endpoint>
residual activity 1A7

>  <experimental value>
125.5

$$$$
>  <substance smiles>
CCCCCCCC(=O)OC[C@H](COP(=O)([O-])OCC[N+](C)(C)C)OC(=O)CCCCCCC

>  <reported endpoint>
residual activity 1A7

>  <experimental value>
114.8

$$$$
>  <substance smiles>
CCCCCCCCCC(=O)OC[C@H](COP(=O)([O-])OCC[N+](C)(C)C)OC(=O)CCCCCCCCC

>  <reported endpoint>
residual activity 1A7

>  <experimental value>
163.2

$$$$

Dear colleague, I am looking for the recorded residual activity 1A7 of the following compound: CCCCCCCCCCCCCCC(=O)OC[C@H](COP(=O)([O-])OCC[N+](C)(C)C)OC(=O)CCCCCCCCCCCCCC
172.7

Could you do the same for CCCCCCC(=O)OC[C@H](COP(=O)([O-])OCC[N+](C)(C)C)OC(=O)CCCCCC , please?
150.2
